test system: Rhipicephalus microplus; test: Rhipicephalus (Boophilus) microplus in-vitro contact test, larval cattle tick, strain Parkhurst (BOOPMI Cont); format: in vivo; conditions: application rate 5 μg/cm^2 (=500 g/ha), tick larvae, after 48 hours, read-out: activity (efficacy: 100% means all larvae are dead or moribund)
experimental.endpoint: pest or weed control at 5 µg/cm2 (%)
Report only the number, with the unit % understood.

Known results for molecules:
* C[C@H](NC(=O)c1cc(Cl)cc(C(F)F)c1)c1nc(C2CC2)nn1-c1ccc(C#N)cn1 [I-42] | 100
* Cc1nc([C@H](C)NC(=O)c2cc(C(F)F)cc(C(F)F)c2)n(-c2ccc(C#N)cn2)n1 [II-114] | 100
* Cc1nc([C@H](C)NC(=O)c2cc(Br)cc(OC(F)(F)F)c2)n(-c2ccc(C#N)cn2)n1 [II-47] | 100

# context switch: different molecule, same pest or weed control at 5 µg/cm2
Q. Could you tell me which pest or weed control at 5 µg/cm2 is on file for Cc1nc([C@H](C)NC(=O)c2cc(Cl)cc(C(F)F)c2)n(-c2ccc(C#N)cn2)n1 [II-65] ?
A. 100

---

Item-by-item account of pest or weed control at 5 µg/cm2, 500 g/ha
tested on: Rhipicephalus sanguineus; assay: Rhipicephalus sanguineus in-vitro contact test, adult brown dog ticks (RHIPSA Cont); format: in vivo; settings: 48 h, application rate 5 μg/cm^2 (=500 g/ha), after 48 hours, read-out: activity (efficacy: 100% means all ticks are dead or moribund)
I only need the number, in %, no unit after it.

Take a look at these entries with their results.
* CC(C)N(C(=O)c1ccc(-n2ncnc2[C@H](C)NC(=O)c2cc(Cl)cc(C(F)(F)F)c2)nc1)C1CC1 | 100
* C[C@H](NC(=O)c1cc(Cl)cc(C(F)F)c1)c1ncnn1-c1ccc(C#N)cn1 | 100
* C[C@H](NC(=O)c1cc(OC(F)F)cc(OC(F)F)c1)c1nc(C2CC2)nn1-c1ccc(C#N)cn1 | 80
* CC[C@H](NC(=O)c1cc(Cl)cc(C(F)(F)F)c1)c1ncnn1-c1ncc(OC(F)F)cn1 | 80
* C[C@H](NC(=O)c1cc(C(F)(F)F)cc(C(F)(F)F)c1)c1ncnn1-c1ccc(C(=O)N(C)C2CC2)cn1 | 100

Q. # get_value(readout='pest or weed control at 5 µg/cm2, 500 g/ha', item= CCc1nc([C@H](C)NC(=O)c2cc(C(F)(F)F)cc(C(F)(F)F)c2)n(-c2ccc(C#N)cn2)n1 )
A. 100

Q. Can you share its pest or weed control at 5 µg/cm2, 500 g/ha? I mean this compound: C[C@H](NC(=O)c1cc(Cl)cc(C(F)(F)F)c1)c1ncnn1-c1ccc(C(=O)N(CC(F)(F)F)C2CC2)cn1
A. 100

Q. GET /values?readout=pest or weed control at 5 µg/cm2, 500 g/ha&item= C[C@H](NC(=O)c1ccc(Cl)c(C(F)(F)F)c1)c1ncnn1-c1ccc(C#N)cn1
A. 100

Q. Endpoint output: pest or weed control at 5 µg/cm2, 500 g/ha of Cc1nc([C@H](C)NC(=O)c2cc(Cl)nc(C(F)(F)F)c2)n(-c2ccc(C#N)cn2)n1 . Value?
A. 100

Q. Request the reported pest or weed control at 5 µg/cm2, 500 g/ha associated with C[C@H](NC(=O)c1cc(Cl)cc(C(F)(F)F)c1)c1ncnn1-c1ccc(N(C)C(=O)C2CC2)cn1
A. 80

Q. For the compound C[C@H](NC(=O)c1cc(Cl)cc(C(F)(F)F)c1)c1ncnn1-c1ccc(C(=O)N(C)CC(F)(F)F)cn1 , what pest or weed control at 5 µg/cm2, 500 g/ha is on record?
A. 100

Q. Request the reported pest or weed control at 5 µg/cm2, 500 g/ha associated with C[C@H](NC(=O)c1cc(C(F)F)cc(C(F)F)c1)c1ncnn1-c1ccc(C#N)cn1
A. 100

Q. Fill in the blank: the reported pest or weed control at 5 µg/cm2, 500 g/ha of C[C@H](NC(=O)c1cc(Br)cc(OC(F)(F)F)c1)c1ncnn1-c1cc(C#N)ccn1 is ____.
A. 100

---

system: Rhipicephalus sanguineus; assay: Rhipicephalus sanguineus in-vitro contact test, adult brown dog ticks (RHIPSA Cont); type: in vivo; conditions: 48 h, application rate 5 μg/cm^2 (=500 g/ha), after 48 hours, read-out: activity (efficacy: 100% means all ticks are dead or moribund)
Measured pest or weed control at 5 µg/cm2, 500 g/ha, listed per entry for reference.
Entry rule: numbers only, all in %.

- C[C@H](NC(=O)c1cc(C(F)(F)F)cc(C(F)(F)F)c1)c1ncnn1-c1ccc(C(=O)N(C)CC2CC2)cn1: 100

Q. Requested field: pest or weed control at 5 µg/cm2, 500 g/ha. Item: C[C@H](NC(=O)c1cc(Cl)cc(C(F)(F)F)c1)c1ncnn1-c1ccc(C(=O)N(C)CC#N)cn1
A. 100

Q. Entry CC(C)c1nc([C@H](C)NC(=O)c2cc(Br)cc(Br)c2)n(-c2ccc(C#N)cn2)n1 has what pest or weed control at 5 µg/cm2, 500 g/ha?
A. 100

Q. I am curious: what pest or weed control at 5 µg/cm2, 500 g/ha value has been reported for C[C@H](NC(=O)c1cc(Cl)cc(C(F)(F)F)c1)c1ncnn1-c1cc(N)ccn1 ?
A. 100

Q. Consider the compound COc1nc([C@H](C)NC(=O)c2cc(OC(F)F)cc(C(F)F)c2)n(-c2ccc(C#N)cn2)n1 and give its measured pest or weed control at 5 µg/cm2, 500 g/ha.
A. 80

---

system: Rhipicephalus microplus; experiment: Rhipicephalus (Boophilus) microplus in-vitro contact test, larval cattle tick, strain Parkhurst (BOOPMI Cont); format: in vivo; settings: application rate 5 μg/cm^2 (=500 g/ha), tick larvae, after 48 hours, read-out: activity (efficacy: 100% means all larvae are dead or moribund)
experimental.endpoint: pest or weed control at 5 µg/cm2 (%)
The reply should contain only the number, in %.

Some compounds with recorded pest or weed control at 5 µg/cm2:
• CC(NC(=O)c1cncc(C(F)(F)F)c1)c1nc(Br)nn1-c1ccc(C#N)cn1 (centres unmarked) = 100
• C[C@H](NC(=O)c1cc(Cl)cc(C#N)c1)c1ncnn1-c1ccc(C#N)cn1 = 100
• C[C@H](NC(=O)c1cc(Br)cc(OC(F)(F)F)c1)c1ncnn1-c1ccc(C#N)cn1 = 100
• CC(C)c1nc([C@H](C)NC(=O)c2cc(Br)cc(Br)c2)n(-c2ccc(C#N)cn2)n1 = 100
• C[C@H](NC(=O)c1cc(Cl)cc(C(F)(F)C(F)(F)F)c1)c1ncnn1-c1ncc(Cl)s1 = 100

Q. I am curious: what pest or weed control at 5 µg/cm2 value has been reported for CC(NC(=O)c1cncc(C(F)(F)F)c1)c1nc(Cl)nn1-c1ccc(C#N)cn1 (centres unmarked) ?
A. 100

Q. Query (compound): CC[C@H](NC(=O)c1cc(Cl)cc(C(F)(F)F)c1)c1ncnn1-c1ncc(OC(F)F)cn1 ; field requested: pest or weed control at 5 µg/cm2
A. 100

Q. Which pest or weed control at 5 µg/cm2 reading was recorded for the compound Cc1nc([C@H](C)NC(=O)c2cc(C(F)(F)F)cc(C(F)(F)F)c2)n(-c2ccc(C(=O)N(C)C(C)C)cn2)n1 ?
A. 100

Q. Reported pest or weed control at 5 µg/cm2, compound C[C@H](NC(=O)c1cc(Cl)cc(Br)c1)c1nc(C2CC2)nn1-c1ccc(C#N)cn1 : ____
A. 100

Q. What does the data say about its pest or weed control at 5 µg/cm2? Entry: COc1nc([C@H](C)NC(=O)c2cc(OC(F)F)cc(OC(F)F)c2)n(-c2ccc(C#N)cn2)n1
A. 100

Q. GET /values?readout=pest or weed control at 5 µg/cm2&item= CC(C)c1nc([C@H](C)NC(=O)c2cc(Br)cc(OC(F)(F)F)c2)n(-c2ccc(C#N)cn2)n1
A. 100

Q. I have this compound here, Cc1nc([C@H](C)NC(=O)c2cccc(Cl)n2)n(-c2ccc(C#N)cn2)n1 , and I need its recorded pest or weed control at 5 µg/cm2.
A. 90

Q. Consider the compound CC(NC(=O)c1cc(C(F)(F)F)cc(C(F)(F)F)c1)c1nc(Cl)nn1-c1ccc(C#N)cn1 (racemic) and give its measured pest or weed control at 5 µg/cm2.
A. 100

Q. What does the data say about its pest or weed control at 5 µg/cm2? Entry: C[C@H](NC(=O)c1cc(Br)cc(OC(F)(F)F)c1)c1nc(C2CC2)nn1-c1ccc(C#N)cn1
A. 100

---

test system: Myzus persicae; test: Myzus persicae spray test; format: in vivo; details: in Brassica rapa, foliar, 120 h, read-out: activity (mortality), application rate 100 g/ha, spray, Chinese cabbage leaf disks, after 5 days
Here the recorded mortality at 100 g/ha is given for each entry.
Value expressed in %; do not type the unit.

• C[C@H](NC(=O)c1cc(OC(F)F)cc(C(F)F)c1)c1ncnn1-c1ccc(C#N)cn1 = 90
• CCN(C(=O)c1ccc(-n2ncnc2[C@H](C)NC(=O)c2cc(Cl)cc(C(F)(F)F)c2)nc1)C1CC1 = 100
• Cc1nc([C@H](C)NC(=O)c2cc(Br)cc(C#N)c2)n(-c2ccc(C#N)cn2)n1 = 90
• C[C@H](NC(=O)c1cc(C(F)(F)F)cc(C(F)(F)F)c1)c1ncnn1-c1ccc(C(N)=O)cn1 = 90

Would you kindly look at the next entry?
Q. # mortality at 100 g/ha lookup, item Cc1nc([C@H](C)NC(=O)c2cc(C(F)(F)F)cc(C(F)(F)F)c2)n(-c2ccc(C(=O)N(C)C)cn2)n1
A. 100

Reference for the values: patent US20220274947A1
